Provide the reported fold change of Putrescine concentration of each item.
Test system: Klebsiella aerogenes DSM 30053
PROCEDURE TEXT: fold change of Putrescine concentration vs plate DMSO controls (fold change (ratio)); higher = more amine produced, active = hit call of the paper (significant change in both replicates, either direction)
PARTICULARS: 20 µM; incubation time: 27 h, anaerobic, 37 °C
Structures can show the parent of a compound that is named as a salt.
Number only, please.

Item O=[N+]([O-])O[C@H]1CO[C@H]2[C@@H]1OC[C@H]2O[N+](=O)[O-] [Isosorbide dinitrate] has what recorded fold change of Putrescine concentration?
0.97

Item CC(C)(N)Cc1ccccc1 [Phentermine hydrochloride] has what recorded fold change of Putrescine concentration?
1.01

Item CCN(C)C(=O)Oc1cccc([C@H](C)N(C)C)c1 has what recorded fold change of Putrescine concentration?
0.993

Item C=CCN1CC[C@]23c4c5ccc(O)c4O[C@H]2C(=O)CC[C@@]3(O)[C@H]1C5 [Naloxone hydrochloride] has what recorded fold change of Putrescine concentration?
0.997

Item CCOc1ccc(C(C)(C)COCc2cccc(Oc3ccccc3)c2)cc1 has what recorded fold change of Putrescine concentration?
0.984

Item C[N+]1([O-])[C@@H]2C[C@@H](OC(=O)[C@H](CO)c3ccccc3)C[C@H]1[C@@H]1O[C@@H]12 (stereo partly specified) [Scopolamin-N-oxide hydrobromide] has what recorded fold change of Putrescine concentration?
0.931

Item O=C(O)COc1ccc(Cl)cc1Cl has what recorded fold change of Putrescine concentration?
1

Item COc1cc2c(c(OC)c1OC)-c1ccc(OC)c(=O)cc1[C@@H](NC(C)=O)CC2 has what recorded fold change of Putrescine concentration?
1.02

Item CN(C)C(=O)Oc1ccc[n+](C)c1 [Pyridostigmine iodide] has what recorded fold change of Putrescine concentration?
0.98

Item C=CC(N)=O [Acrylamide] has what recorded fold change of Putrescine concentration?
0.987

Item CC1(C)CON(Cc2ccccc2Cl)C1=O has what recorded fold change of Putrescine concentration?
1

Item CCCN(CCC)C(=O)SCc1ccccc1 has what recorded fold change of Putrescine concentration?
1.01

Item CCNCC(O)c1cccc(O)c1 (stereo unspecified) [Etilefrine hydrochloride] has what recorded fold change of Putrescine concentration?
1.01

Item OC(c1ccccc1)(c1ccccc1)C1CCNCC1 has what recorded fold change of Putrescine concentration?
1.01

Item Cc1cc(C(C#N)c2ccc(Cl)cc2)c(Cl)cc1NC(=O)c1cc(I)cc(I)c1O (stereo unspecified) [Closantel] has what recorded fold change of Putrescine concentration?
0.984

Item O=C(NC(=O)c1c(F)cccc1F)Nc1ccc(Cl)cc1 has what recorded fold change of Putrescine concentration?
1.05

Item CC(C)OC(=O)C(C(=O)OC(C)C)=C1SCCS1 has what recorded fold change of Putrescine concentration?
1

Item CC(C)C[C@H](CN)CC(=O)O has what recorded fold change of Putrescine concentration?
1

Item O=C(Nc1ccc(F)cc1F)c1cccnc1Oc1cccc(C(F)(F)F)c1 has what recorded fold change of Putrescine concentration?
0.995

Item CCCN(CCC)N=O has what recorded fold change of Putrescine concentration?
0.982

Item Nc1ccncc1 has what recorded fold change of Putrescine concentration?
0.989

* * *

Provide the reported fold change of Cadaverine concentration of each item.
Test system: Klebsiella aerogenes DSM 30053
PROCEDURE TEXT: fold change of Cadaverine concentration vs plate DMSO controls (fold change (ratio)); higher = more amine produced, active = hit call of the paper (significant change in both replicates, either direction)
PARTICULARS: 20 µM; incubation time: 27 h, anaerobic, 37 °C
Structures can show the parent of a compound that is named as a salt.
Number only, please.

Item CC(=O)NC1CCSC1=O (stereo unspecified) has what recorded fold change of Cadaverine concentration?
1.06

Item COc1ccc(OC)c(C(O)C(C)N)c1 (stereo unspecified) [Methoxamine hydrochloride] has what recorded fold change of Cadaverine concentration?
0.988

Item CCOc1ccc(C(C)(C)COCc2cccc(Oc3ccccc3)c2)cc1 has what recorded fold change of Cadaverine concentration?
1.05

Item O=C1c2ccccc2C(=O)N1SC(Cl)(Cl)Cl has what recorded fold change of Cadaverine concentration?
0.988

Item CNC(=O)c1cc(Cl)cc(C)c1NC(=O)c1cc(Br)nn1-c1ncccc1Cl has what recorded fold change of Cadaverine concentration?
0.999

Item CCOCN(C(=O)CCl)c1c(C)cccc1CC has what recorded fold change of Cadaverine concentration?
1

* * *

Test system: Ruminococcus gnavus DSM 108212
PROCEDURE TEXT: fold change of Tryptamine concentration vs plate DMSO controls (fold change (ratio)); higher = more amine produced, active = hit call of the paper (significant change in both replicates, either direction)
PARTICULARS: 20 µM; incubation time: 27 h, anaerobic, 37 °C
Counter-ions that a name gives are not always drawn.
Provide the reported fold change of Tryptamine concentration of each item.
Number only, please.

Item Oc1ccc(C(c2ccc(O)cc2)(C(F)(F)F)C(F)(F)F)cc1 has what recorded fold change of Tryptamine concentration?
0.717

Item COc1cc(OC)nc(NC(=O)NS(=O)(=O)c2ncccc2C(=O)N(C)C)n1 has what recorded fold change of Tryptamine concentration?
1.01

Item C[N+]1(C)CCOC(O)(c2ccc(-c3ccc(C4(O)C[N+](C)(C)CCO4)cc3)cc2)C1 (stereo not drawn) [Hemicholinium bromide] has what recorded fold change of Tryptamine concentration?
1.06

Item O=C(O)C(F)(F)C(F)(F)C(F)(F)C(F)(F)C(F)(F)C(F)(F)C(F)(F)F has what recorded fold change of Tryptamine concentration?
0.94

Item CC(NC(C)(C)C)C(=O)c1cccc(Cl)c1 (stereo not drawn) [Bupropion hydrochloride] has what recorded fold change of Tryptamine concentration?
1.08

Item COc1ccc(C(=CC(=O)N2CCOCC2)c2ccc(Cl)cc2)cc1OC (mixture of isomers) has what recorded fold change of Tryptamine concentration?
1.08

Item N#Cc1nn(-c2c(Cl)cc(C(F)(F)F)cc2Cl)c(N)c1[S+]([O-])C(F)(F)F (stereo not drawn) has what recorded fold change of Tryptamine concentration?
1.06

Item C=C(C)[C@@H]1[C@H]2OC(=O)[C@@H]1[C@]1(O)C[C@H]3O[C@]34C(=O)O[C@H]2[C@]14C has what recorded fold change of Tryptamine concentration?
1.02

Item CCC(C)(C)C(=O)OC1=C(c2ccc(Cl)cc2Cl)C(=O)OC12CCCCC2 has what recorded fold change of Tryptamine concentration?
1.03

Item Fc1ccc(C(OCCN2CCN(CCCc3ccccc3)CC2)c2ccc(F)cc2)cc1 has what recorded fold change of Tryptamine concentration?
0.638

Item CC(=O)[C@H]1CC[C@H]2[C@@H]3CC[C@H]4C[C@H](O)CC[C@]4(C)[C@H]3C(=O)C[C@]12C has what recorded fold change of Tryptamine concentration?
0.959

Item Nc1nc(N)nc(NC2CC2)n1 has what recorded fold change of Tryptamine concentration?
0.995

Item CC1(C)CON(Cc2ccccc2Cl)C1=O has what recorded fold change of Tryptamine concentration?
1.01

Item CO/C=C(/C(=O)OC)c1ccccc1Oc1cc(Oc2ccccc2C#N)ncn1 has what recorded fold change of Tryptamine concentration?
1.01

Item CCOP(=S)(OCC)Oc1cc(C)nc(C(C)C)n1 has what recorded fold change of Tryptamine concentration?
0.997

Item O=C(O)C(F)(F)C(F)(F)C(F)(F)C(F)(F)C(F)(F)C(F)(F)C(F)(F)C(F)(F)F has what recorded fold change of Tryptamine concentration?
0.968

Item C[CH2][Hg][S]c1ccccc1C(=O)[O-].[Na+] has what recorded fold change of Tryptamine concentration?
0.487

Item CCN(CC)N=O has what recorded fold change of Tryptamine concentration?
1.01

* * *

System: Escherichia coli IAI1
PROCEDURE TEXT: growth (OD595) fold change vs plate DMSO controls (fold change (ratio)); higher = more growth
PARTICULARS: 20 µM; incubation time: 27 h, anaerobic, 37 °C
# cutoff 1 applies to growth; >= gives class 1, < gives class 0

Assess whether reported growth for Oc1ccc(C(c2ccc(O)cc2)(C(F)(F)F)C(F)(F)F)cc1 sits at 1 or higher.
class 1

Assess whether reported growth for O=C(NCCc1ncc(C(F)(F)F)cc1Cl)c1ccccc1C(F)(F)F sits at 1 or higher.
class 1

Assess whether reported growth for C[N+]1(C)CCCC(OC(=O)C(O)(c2ccccc2)c2ccccc2)C1 (stereo not given) [Mepenzolate bromide] sits at 1 or higher.
class 0

Assess whether reported growth for CCC(=O)O[C@@](Cc1ccccc1)(c1ccccc1)[C@@H](C)CN(C)C [Levopropoxyphene napsylate] sits at 1 or higher.
class 1

Assess whether reported growth for CC(=O)O[C@H]1CC[C@@]2(C)C(=CC[C@@H]3[C@@H]2CC[C@]2(C)C(=O)CC[C@@H]32)C1 [Dehydroisoandosterone 3-acetate] sits at 1 or higher.
class 1

Assess whether reported growth for O=C1C2CC=CCC2C(=O)N1SC(Cl)(Cl)Cl (stereo not given) sits at 1 or higher.
class 1

Assess whether reported growth for N#Cc1cc(Br)c(O)c(Br)c1 sits at 1 or higher.
class 0

Assess whether reported growth for CC(CCc1ccccc1)NC(C)C(O)c1ccc(O)cc1 (stereo not given) sits at 1 or higher.
class 1

Assess whether reported growth for CNC(=O)CSP(=S)(OC)OC sits at 1 or higher.
class 1

Assess whether reported growth for C[C@]12CCC(=O)C=C1CC[C@@H]1[C@@H]2C(=O)C[C@]2(C)C(=O)CC[C@@H]12 sits at 1 or higher.
class 1

Assess whether reported growth for CCOc1ccc(C(C)(C)COCc2cccc(Oc3ccccc3)c2)cc1 sits at 1 or higher.
class 1

Assess whether reported growth for COc1cc([C@@H]2c3cc4c(cc3[C@H](O)[C@H]3COC(=O)[C@H]23)OCO4)cc(OC)c1OC sits at 1 or higher.
class 1

Assess whether reported growth for Oc1ccccc1-c1ccccc1 sits at 1 or higher.
class 1

Assess whether reported growth for CN(C)[C@@H]1C(=O)C(C(N)=O)=C(O)[C@@]2(O)C(=O)C3=C(O)c4c(O)cccc4[C@@](C)(O)[C@H]3[C@H](O)[C@@H]12 [Oxytetracycline dihydrate] sits at 1 or higher.
class 0

Assess whether reported growth for N#Cc1nn(-c2c(Cl)cc(C(F)(F)F)cc2Cl)c(N)c1[S+]([O-])C(F)(F)F (stereo not given) [Fipronil] sits at 1 or higher.
class 1

Assess whether reported growth for O=C(O[C@H]1C[N+]2(CCCOc3ccccc3)CCC1CC2)C(O)(c1cccs1)c1cccs1 [Aclidinium bromide] sits at 1 or higher.
class 1

Assess whether reported growth for COP(N)(=O)SC (stereo not given) sits at 1 or higher.
class 1
